- cond: 308.15 K; 100 kPa; Liquid
Numbers after ± are expanded uncertainties.
I'd appreciate it if you could supply mass density values for the items below.
Answer format: value, then unit.

*Q* Which measured mass density value corresponds to CCCCOC(C)=O [butyl ethanoate] ?
*A* 865.1 ± 3.1 kg/m3

*Q* Which measured mass density value corresponds to CCCCCOC(C)=O [pentyl ethanoate] ?
*A* 861.6 ± 3.3 kg/m3

*Q* Which measured mass density value corresponds to CCOC(C)=O [ethyl acetate] ?
*A* 881.4 ± 3.1 kg/m3

*Q* Which measured mass density value corresponds to CCCOC(C)=O [propyl ethanoate] ?
*A* 870.5 ± 3.3 kg/m3

---

- cond: 298.15 K; 1000 kPa; Liquid
I'd appreciate it if you could supply mass density values for the items below.
Answer format: numeric, kg/m3 implied, no suffix.

*Q* Which measured mass density value corresponds to CCCCCOC(C)=O [pentyl ethanoate] ?
*A* 871.9

*Q* Which measured mass density value corresponds to CCOC(C)=O [ethyl acetate] ?
*A* 894.7

*Q* Which measured mass density value corresponds to CCCOC(C)=O [propyl ethanoate] ?
*A* 882.5

*Q* Which measured mass density value corresponds to CCCCOC(C)=O [butyl ethanoate] ?
*A* 876.3

---

I'd appreciate it if you could supply mass density values for the items below.
- cond: 338.15 K; 100 kPa; Liquid
Numbers after ± are expanded uncertainties.

*Q* Which measured mass density value corresponds to CCCCOC(C)=O [butyl ethanoate] ?
*A* 834.5 ± 3.2 kg/m3

*Q* Which measured mass density value corresponds to CCCOC(C)=O [propyl ethanoate] ?
*A* 836.7 ± 3.3 kg/m3

*Q* Which measured mass density value corresponds to CCCCCOC(C)=O [pentyl ethanoate] ?
*A* 832.9 ± 3.3 kg/m3

*Q* Which measured mass density value corresponds to CCOC(C)=O [ethyl acetate] ?
*A* 844 ± 3.1 kg/m3

---

- cond: 318.15 K; 25000 kPa; Liquid
endpoint: mass density (kg/m3)
Answer format: numeric, kg/m3 implied, no suffix.

*Q* Which measured mass density value corresponds to CCOC(C)=O [ethyl acetate] ?
*A* 894.5

*Q* Which measured mass density value corresponds to CCCCCOC(C)=O [pentyl ethanoate] ?
*A* 872.3

*Q* Which measured mass density value corresponds to CCCCOC(C)=O [butyl ethanoate] ?
*A* 876.5

*Q* Which measured mass density value corresponds to CCCOC(C)=O [propyl ethanoate] ?
*A* 882.8

---

I'd appreciate it if you could supply mass density values for the items below.
- cond: 378.15 K; 2000 kPa; Liquid
± gives the expanded uncertainty stated by the source.
Answer format: value, then unit.

*Q* Which measured mass density value corresponds to CCCOC(C)=O [propyl ethanoate] ?
*A* 791.3 ± 3.6 kg/m3

*Q* Which measured mass density value corresponds to CCCCCOC(C)=O [pentyl ethanoate] ?
*A* 793.1 ± 3.6 kg/m3

*Q* Which measured mass density value corresponds to CCOC(C)=O [ethyl acetate] ?
*A* 793.8 ± 3.4 kg/m3

*Q* Which measured mass density value corresponds to CCCCOC(C)=O [butyl ethanoate] ?
*A* 793.7 ± 3.4 kg/m3

---

- cond: 303.15 K; 20000 kPa; Liquid
endpoint: mass density (kg/m3)
Answer format: numeric, kg/m3 implied, no suffix.

*Q* Which measured mass density value corresponds to CCCCCOC(C)=O [pentyl ethanoate] ?
*A* 881.6

*Q* Which measured mass density value corresponds to CCCOC(C)=O [propyl ethanoate] ?
*A* 893.5

*Q* Which measured mass density value corresponds to CCCCOC(C)=O [butyl ethanoate] ?
*A* 886.5

*Q* Which measured mass density value corresponds to CCOC(C)=O [ethyl acetate] ?
*A* 906.3

---

I'd appreciate it if you could supply mass density values for the items below.
- cond: 298.15 K; 30000 kPa; Liquid
Answer format: numeric, kg/m3 implied, no suffix.

*Q* Which measured mass density value corresponds to CCCOC(C)=O [propyl ethanoate] ?
*A* 906.9

*Q* Which measured mass density value corresponds to CCOC(C)=O [ethyl acetate] ?
*A* 921.1

*Q* Which measured mass density value corresponds to CCCCCOC(C)=O [pentyl ethanoate] ?
*A* 893.6

*Q* Which measured mass density value corresponds to CCCCOC(C)=O [butyl ethanoate] ?
*A* 899.1

---

I'd appreciate it if you could supply mass density values for the items below.
- cond: 368.15 K; 5000 kPa; Liquid
Answer format: numeric, kg/m3 implied, no suffix.

*Q* Which measured mass density value corresponds to CCOC(C)=O [ethyl acetate] ?
*A* 812.1

*Q* Which measured mass density value corresponds to CCCOC(C)=O [propyl ethanoate] ?
*A* 807.4

*Q* Which measured mass density value corresponds to CCCCOC(C)=O [butyl ethanoate] ?
*A* 807.7

*Q* Which measured mass density value corresponds to CCCCCOC(C)=O [pentyl ethanoate] ?
*A* 807.5

---

- cond: 338.15 K; 20000 kPa; Liquid
endpoint: mass density (kg/m3)
Answer format: numeric, kg/m3 implied, no suffix.

*Q* Which measured mass density value corresponds to CCCCCOC(C)=O [pentyl ethanoate] ?
*A* 851.9

*Q* Which measured mass density value corresponds to CCCOC(C)=O [propyl ethanoate] ?
*A* 859

*Q* Which measured mass density value corresponds to CCCCOC(C)=O [butyl ethanoate] ?
*A* 855

*Q* Which measured mass density value corresponds to CCOC(C)=O [ethyl acetate] ?
*A* 868.5

---

I'd appreciate it if you could supply mass density values for the items below.
- cond: 338.15 K; 3000 kPa; Liquid
Answer format: numeric, kg/m3 implied, no suffix.

*Q* Which measured mass density value corresponds to CCOC(C)=O [ethyl acetate] ?
*A* 848.2

*Q* Which measured mass density value corresponds to CCCCOC(C)=O [butyl ethanoate] ?
*A* 837.9

*Q* Which measured mass density value corresponds to CCCOC(C)=O [propyl ethanoate] ?
*A* 840.5

*Q* Which measured mass density value corresponds to CCCCCOC(C)=O [pentyl ethanoate] ?
*A* 836.1

---

- cond: 298.15 K; 15000 kPa; Liquid
± gives the expanded uncertainty stated by the source.
endpoint: mass density
Answer format: value, then unit.

*Q* Which measured mass density value corresponds to CCOC(C)=O [ethyl acetate] ?
*A* 907.7 ± 4.9 kg/m3

*Q* Which measured mass density value corresponds to CCCCCOC(C)=O [pentyl ethanoate] ?
*A* 882.7 ± 5.1 kg/m3

*Q* Which measured mass density value corresponds to CCCCOC(C)=O [butyl ethanoate] ?
*A* 887.6 ± 4.9 kg/m3

*Q* Which measured mass density value corresponds to CCCOC(C)=O [propyl ethanoate] ?
*A* 894.8 ± 5.1 kg/m3

---

I'd appreciate it if you could supply mass density values for the items below.
- cond: 343.15 K; 30000 kPa; Liquid
Answer format: numeric, kg/m3 implied, no suffix.

*Q* Which measured mass density value corresponds to CCCCCOC(C)=O [pentyl ethanoate] ?
*A* 857.3

*Q* Which measured mass density value corresponds to CCCCOC(C)=O [butyl ethanoate] ?
*A* 860.7

*Q* Which measured mass density value corresponds to CCCOC(C)=O [propyl ethanoate] ?
*A* 865

*Q* Which measured mass density value corresponds to CCOC(C)=O [ethyl acetate] ?
*A* 875.1

---

- cond: 388.15 K; 5000 kPa; Liquid
I'd appreciate it if you could supply mass density values for the items below.
Answer format: numeric, kg/m3 implied, no suffix.

*Q* Which measured mass density value corresponds to CCOC(C)=O [ethyl acetate] ?
*A* 786.9

*Q* Which measured mass density value corresponds to CCCOC(C)=O [propyl ethanoate] ?
*A* 785.4

*Q* Which measured mass density value corresponds to CCCCCOC(C)=O [pentyl ethanoate] ?
*A* 789.4

*Q* Which measured mass density value corresponds to CCCCOC(C)=O [butyl ethanoate] ?
*A* 788.4

---

- cond: 308.15 K; 2000 kPa; Liquid
I'd appreciate it if you could supply mass density values for the items below.
Answer format: numeric, kg/m3 implied, no suffix.

*Q* Which measured mass density value corresponds to CCCCCOC(C)=O [pentyl ethanoate] ?
*A* 863.1

*Q* Which measured mass density value corresponds to CCCCOC(C)=O [butyl ethanoate] ?
*A* 866.9

*Q* Which measured mass density value corresponds to CCCOC(C)=O [propyl ethanoate] ?
*A* 872.2

*Q* Which measured mass density value corresponds to CCOC(C)=O [ethyl acetate] ?
*A* 883.3

---

- cond: 318.15 K; 1000 kPa; Liquid
I'd appreciate it if you could supply mass density values for the items below.
Answer format: numeric, kg/m3 implied, no suffix.

*Q* Which measured mass density value corresponds to CCOC(C)=O [ethyl acetate] ?
*A* 869.8

*Q* Which measured mass density value corresponds to CCCOC(C)=O [propyl ethanoate] ?
*A* 859.8

*Q* Which measured mass density value corresponds to CCCCOC(C)=O [butyl ethanoate] ?
*A* 855.7

*Q* Which measured mass density value corresponds to CCCCCOC(C)=O [pentyl ethanoate] ?
*A* 852.6
